# tested system: T1, Cynomolgus monkey cKIT D1-5 (residues 25-520, C-terminal His tag) (cynomolgus monkey, UniProt P10721 25-520 (human entry))
# T1 construct: the signal peptide was not part of the protein in the assay; also called cyno cKIT; cynomolgus monkey ECD
# T1 chain: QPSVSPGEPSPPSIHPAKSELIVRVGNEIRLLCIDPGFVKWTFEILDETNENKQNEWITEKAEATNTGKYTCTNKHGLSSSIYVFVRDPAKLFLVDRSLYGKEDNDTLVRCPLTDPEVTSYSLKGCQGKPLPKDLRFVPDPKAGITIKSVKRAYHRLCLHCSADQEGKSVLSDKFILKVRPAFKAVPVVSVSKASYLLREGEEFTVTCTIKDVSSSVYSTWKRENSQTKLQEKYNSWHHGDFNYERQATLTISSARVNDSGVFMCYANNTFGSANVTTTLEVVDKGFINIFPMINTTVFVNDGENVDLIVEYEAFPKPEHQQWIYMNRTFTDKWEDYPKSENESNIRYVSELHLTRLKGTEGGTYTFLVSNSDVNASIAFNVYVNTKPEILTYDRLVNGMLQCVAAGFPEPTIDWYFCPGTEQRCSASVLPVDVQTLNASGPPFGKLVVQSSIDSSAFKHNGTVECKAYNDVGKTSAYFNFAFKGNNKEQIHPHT
# test summary: SPR (Biacore 2000), antibody captured on anti-human Fc, cKIT ECD as analyte, 25 C, 1:1 fit
measurement type: Kd

Report Kd for 20376 (antibody, human IgG1, lambda, V domains shown, human IgG1 lambda) VH: QVQLVQSGAEVKKPGSSVKVSCKASGGTFSSYAISWVRQAPGQGLEWMGGIIPMSGRTTYAQKFQGRVTITADESTSTAYMELSSLRSEDTAVYYCARDYGPEAPDYGQSTSYFWYYAFDPWGQGTLVTVSS VL: DIELTQPPSVSVSPGQTASITCSGDNIPSYFVHWYQQKPGQAPVLVIYDDNDRPSGIPERFSGSNSGNTATLTISGTQAEDEADYYCSSWDQDTVVFGGGTKLTVLG please.
4.8 nM

Reference for the values: patent US20150320880A1
